system: Staphylococcus aureus 43300; experiment: Antibacterial growth inhibition assay (serial dilution, colorimeter at 600 nm), S. aureus 43300; format: cell-based; settings: Staphylococcus aureus, 43300; 50% growth inhibition; methicillin resistant strain; serial dilution 238-0.46 μg/ml; read-out: MIC, concentration at 50% inhibition of bacteria growth, S. aureus 43300
# key: entry, value: MIC
READOUT_TYPE: MIC (mg/L)

> print(dat)
                                   molecule  observed.value
1  CCN1CC[C@@H](CN(Cc2ccccc2)Cc2ccc(Cl)c(Cl)c2)OC1=O [Compound A11]            6.56
2  CCN1CC[C@@H](CN(Cc2ccccc2)Cc2cccc3ccccc23)OC1=O [Compound A13]              35
3  CCN1CC[C@@H](CN(Cc2ccccc2)Cc2ccccc2C)OC1=O [Compound A17]            22.5
4  CN1CC[C@@H](CN(Cc2ccccc2)Cc2ccc3ccccc3c2)OC1=O [Compound B9]              13

Data provenance: patent US7700590B2
